# assay overview: self-splicing fitness, log relative to wild type (ln ratio); higher = more splicing; Tetrahymena group I intron in knt gene, E. coli kanamycin selection, DiMSum; sequences stand for … in CUCUCU…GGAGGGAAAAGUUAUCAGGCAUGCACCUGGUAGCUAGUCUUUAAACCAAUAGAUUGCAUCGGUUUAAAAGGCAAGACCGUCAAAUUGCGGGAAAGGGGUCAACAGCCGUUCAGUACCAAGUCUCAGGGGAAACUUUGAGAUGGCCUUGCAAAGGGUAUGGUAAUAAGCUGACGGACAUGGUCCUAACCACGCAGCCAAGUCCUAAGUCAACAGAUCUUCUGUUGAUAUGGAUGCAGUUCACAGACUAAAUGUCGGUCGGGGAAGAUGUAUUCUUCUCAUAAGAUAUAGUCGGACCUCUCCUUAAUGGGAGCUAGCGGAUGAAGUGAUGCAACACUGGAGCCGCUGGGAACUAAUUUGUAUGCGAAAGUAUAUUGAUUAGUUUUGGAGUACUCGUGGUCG;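 also: selection with 25 µg/mL kanamycin versus none on LB agar overnight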
# details: 30 °C
reported metric: self-splicing fitness (ln)
Lab note: jot down the number only; don't add units.

Please review the entries below; each comes with its answer.
ACCCAGCAAUAUUACGAACA | -0.802
UCGCAGCAAUAUUACGCUGA | -2.33
UUGCAGCAAUAUUACGCGCU | -1.88
AUCAAGCAAUAUUACGCCUC | -2.77
CCCUAGCAAUAUUACGGGAA | -3.63

Reported self-splicing fitness (ln), sequence `CCAAAGCAAUAUUACGUUCA` : ____ -2.59

Now give it for `GGUAAGCAAUAUUACGCCGU` too. -1.93

Also need `CUCUAGCAAUAUUACGAAAU` , thanks. -3.13

Ok, now `UCUGAGCAAUAUUACGUCUG` -1.01

Would you mind doing `UCGGAGCAAUAUUACGGGCG` as well? -1.37

One more sequence: `AAGUAGCAAUAUUACGCGUU` -2.09

And then `UUCGAGCAAUAUUACGUGAG` , what is it? -1.12

Please give the result for `CUUAAGCAAUAUUACGGCCU` too. -2.74

Please give the result for `GGCCAGCAAUAUUACGCCCC` too. -1.65

Thanks! And `UCGCAGCAAUAUUACGGAUA` ? -2.58

Subsequent entry: `AAUUAGCAAUAUUACGCCCG` -1.04

---

# assay overview: self-splicing fitness, log relative to wild type (ln ratio); higher = more splicing; Tetrahymena group I intron in knt gene, E. coli kanamycin selection, DiMSum; sequences stand for … in CUCUCU…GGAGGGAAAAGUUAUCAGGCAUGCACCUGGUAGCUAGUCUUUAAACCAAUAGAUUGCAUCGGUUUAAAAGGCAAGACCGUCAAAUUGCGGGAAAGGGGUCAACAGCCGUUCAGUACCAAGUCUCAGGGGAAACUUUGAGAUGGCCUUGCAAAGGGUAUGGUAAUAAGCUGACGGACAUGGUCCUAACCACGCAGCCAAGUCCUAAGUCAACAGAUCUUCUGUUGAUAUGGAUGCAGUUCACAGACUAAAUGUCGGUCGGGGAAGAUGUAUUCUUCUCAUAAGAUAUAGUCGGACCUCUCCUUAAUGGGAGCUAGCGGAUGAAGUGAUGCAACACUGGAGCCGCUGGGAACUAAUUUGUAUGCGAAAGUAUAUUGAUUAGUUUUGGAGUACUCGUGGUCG
# details: 37 °C
reported metric: self-splicing fitness (ln)

Please review the following examples before continuing.
CCGCAGCAAUAUUACGAGAA | -2.24
GCGAAGCAAUAUUACGGGGU | -2.89
GUUAAGCAAUAUUACGAGUU | -0.688
AAUAAGCAAUAUUACGAGGG | -2.9
AUGAAGCAAUAUUACGCUGG | -0.718

If you can, please state the reported self-splicing fitness (ln) value of `GUCGAGCAAUAUUACGCCUA` . -1.1

Follow-up entry: `GAAUAGCAAUAUUACGUAGA` -1.55

How about `CAGGAGCAAUAUUACGGAUG` ? -2.02

Now consider `UCUCAGCAAUAUUACGAGCC` and answer again. -1.68

Another: `ACAGAGCAAUAUUACGGGCA` -0.773

# iterate: `GUACAGCAAUAUUACGACCC` 0.979

Try this sequence next: `UUGAAGCAAUAUUACGGCGA` 0.256

Could you do the same for `GUGUAGCAAUAUUACGCAUC` , please? -0.977

---

# assay overview: self-splicing fitness, log relative to wild type (ln ratio); higher = more splicing; Tetrahymena group I intron in knt gene, E. coli kanamycin selection, DiMSum; sequences stand for … in CUCUCU…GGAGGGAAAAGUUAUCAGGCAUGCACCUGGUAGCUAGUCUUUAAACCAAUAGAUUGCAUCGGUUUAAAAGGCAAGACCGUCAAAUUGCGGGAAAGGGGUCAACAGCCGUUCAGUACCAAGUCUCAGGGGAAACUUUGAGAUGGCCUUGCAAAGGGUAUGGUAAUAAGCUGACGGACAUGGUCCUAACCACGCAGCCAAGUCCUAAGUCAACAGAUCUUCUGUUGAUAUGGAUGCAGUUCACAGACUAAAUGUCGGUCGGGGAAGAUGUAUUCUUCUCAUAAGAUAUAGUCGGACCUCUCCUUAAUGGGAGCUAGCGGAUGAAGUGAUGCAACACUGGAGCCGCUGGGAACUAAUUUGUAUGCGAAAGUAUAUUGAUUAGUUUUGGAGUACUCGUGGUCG
# details: 30 °C
In this section we review reported self-splicing fitness (ln) values for a set of sequences.
Answer using only a numeral; do not append any unit.

Worked set:
CCCUAGCAAUAUUACGCACG | -3.98
AAGGAGCAAUAUUACGGCGA | -2.84
ACCAAGCAAUAUUACGCACA | -0.684
AUUCAGCAAUAUUACGAAUC | -2.12
GGGUAGCAAUAUUACGUAAU | -0.889

So what's the measured self-splicing fitness (ln) for this one? `UGUGAGCAAUAUUACGACUG` -1.04

Please answer likewise for `CCGGAGCAAUAUUACGGAGA` -3.99

Same question for `UAGUAGCAAUAUUACGUGAC` please. -2.58

Ok, now `GGAUAGCAAUAUUACGAAUU` -2.56

For `ACGGAGCAAUAUUACGAGGA` then? -2.89

Also need `UGCCAGCAAUAUUACGACGC` , thanks. -3.03

Here is the next sequence: `GUCUAGCAAUAUUACGCCAG` -2.46

Query `CAGUAGCAAUAUUACGUGUU` next -3.39

Would you mind doing `GCUGAGCAAUAUUACGUAUC` as well? -2.37

Lookup `CAAUAGCAAUAUUACGGUCU` -3.24

Next up: `UCCUAGCAAUAUUACGGUUU` -1.44

---

Measured self-splicing fitness (ln) of individual entries
# assay overview: self-splicing fitness, log relative to wild type (ln ratio); higher = more splicing; Tetrahymena group I intron in knt gene, E. coli kanamycin selection, DiMSum; sequences stand for … in CUCUCU…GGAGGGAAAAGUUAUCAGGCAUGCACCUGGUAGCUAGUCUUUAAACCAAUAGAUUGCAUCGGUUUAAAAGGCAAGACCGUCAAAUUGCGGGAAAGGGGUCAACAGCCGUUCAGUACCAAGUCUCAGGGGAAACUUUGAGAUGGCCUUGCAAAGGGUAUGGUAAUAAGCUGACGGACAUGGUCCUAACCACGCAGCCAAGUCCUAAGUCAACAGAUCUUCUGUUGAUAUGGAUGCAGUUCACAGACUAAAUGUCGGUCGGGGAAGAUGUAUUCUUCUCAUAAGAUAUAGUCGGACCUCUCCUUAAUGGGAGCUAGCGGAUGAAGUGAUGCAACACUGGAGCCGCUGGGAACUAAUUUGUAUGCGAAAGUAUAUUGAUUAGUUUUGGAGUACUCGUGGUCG
# details: 30 °C
Answer using only a numeral; do not append any unit.

UGGCAGCAAUAUUACGUGUU | -3.93

Which value of self-splicing fitness (ln) has been reported for `GGCGAGCAAUAUUACGAGCG` in the records? -0.88

---

# assay overview: self-splicing fitness, log relative to wild type (ln ratio); higher = more splicing; Tetrahymena group I intron in knt gene, E. coli kanamycin selection, DiMSum; sequences stand for … in CUCUCU…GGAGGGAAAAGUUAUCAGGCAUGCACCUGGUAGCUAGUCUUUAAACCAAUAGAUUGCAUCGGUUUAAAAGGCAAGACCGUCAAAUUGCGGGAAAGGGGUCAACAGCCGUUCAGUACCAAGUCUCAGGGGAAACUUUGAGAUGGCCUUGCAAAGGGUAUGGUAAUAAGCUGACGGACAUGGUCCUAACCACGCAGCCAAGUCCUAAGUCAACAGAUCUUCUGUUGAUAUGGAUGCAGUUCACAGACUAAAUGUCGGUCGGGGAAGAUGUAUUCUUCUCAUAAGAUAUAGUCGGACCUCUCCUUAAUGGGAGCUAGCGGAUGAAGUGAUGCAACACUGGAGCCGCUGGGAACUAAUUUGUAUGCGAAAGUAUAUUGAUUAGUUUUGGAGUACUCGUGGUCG
# details: 37 °C
self-splicing fitness (ln) by entry:
Just the number, please, no unit after it.

// worked examples, self-splicing fitness (ln) included
CAAAAGCAAUAUUACGUAAC | -2.62
CUUGAGCAAUAUUACGAAAG | -3.32
GUGAAGCAAUAUUACGGGUG | -0.589
GGAAAGCAAUAUUACGGCGG | -1.45
AAGCAGCAAUAUUACGCGUA | -0.515
UACUAGCAAUAUUACGCCUG | 1.03
CGUCAGCAAUAUUACGUAGC | -2.29
CCUUAGCAAUAUUACGGUGC | -3.01

From here, focus on the item given below.
Would you kindly share the measured self-splicing fitness (ln) for `CUAUAGCAAUAUUACGUUUU` ? -2.61
